# targetOrSystem: transactivating tegument protein VP16 (Human herpesvirus 1), as a GAL4-VP16 activation-domain luciferase reporter
# protocol: VP16 transactivation inhibitor potency, dose response, counter-screen for SRC3 inhibitor project, cell-based, luminescence, high throughput, SRC3 series (AID 602167)
# measurementContext: VP16 transactivation luciferase reporter cells
Active and inactive are the calls of the source. How the calls were made is not given here.
Possible outcomes: active, inactive

INSERT INTO assay_data (compound, assignedclass) VALUES
  ('CC(=O)NC(c1cc(Cl)c2cccnc2c1O)C(C)C (stereo unspecified)', 'inactive'),
  ('c1ccc2c(c1)Nc1ccncc1S2', 'inactive'),
  ('COc1ccc(C)cc1NS(=O)(=O)c1ccc(NC(=O)CN(c2cc([N+](=O)[O-])ccc2C)S(C)(=O)=O)cc1', 'inactive'),
  ('O=C(CCl)N(c1ccccc1)C1CCCCC1', 'inactive'),
  ('C=CS(=O)(=O)N(Cc1ccc(Cl)c(Cl)c1)C[C@@H](O)CO', 'inactive'),
  ('CN[C@H]1CCc2cc(OC)c(OC)c(OC)c2-c2ccc(OC)c(=O)cc21', 'inactive'),
  ('O=S(=O)(/C(=C\c1ccc(C(F)(F)F)cc1)c1nc2ccccc2[nH]1)c1ccccc1', 'active'),
  ('Cc1cc(C(=O)COC(=O)C2=COCCO2)c(C)n1-c1ccccc1', 'inactive'),
  ('Cc1ccc2nc(C(F)(F)F)c(C#N)c(N)c2c1', 'inactive'),
  ('CN(Cc1cnc2nc(N)nc(N)c2n1)c1ccc(C(=O)N[C@@H](CCC(=O)O)C(=O)O)cc1', 'inactive'),
  ('OCCN1CCN(C(=S)c2ccc(-c3ccccc3)cc2)CC1', 'inactive');

====

# targetOrSystem: transactivating tegument protein VP16 (Human herpesvirus 1), as a GAL4-VP16 activation-domain luciferase reporter
# protocol: VP16 transactivation inhibitor potency, dose response, counter-screen for SRC3 inhibitor project, cell-based, luminescence, high throughput, SRC3 series (AID 602167)
# measurementContext: VP16 transactivation luciferase reporter cells
The source made the active and inactive calls. The rule behind the calls is not given here.
Outcome codes: active, inactive

INSERT INTO results (compound, assignedclass) VALUES
  ('O=C(N/N=C/c1cc(Br)c(Br)s1)c1ccncc1', 'inactive'),
  ('COc1ccc(C(C(=O)NC2CCCCC2)N(C(=O)CCl)c2ccc(OC)cc2)cc1 (centres undefined)', 'active'),
  ('O=C(CC(Nc1ccc(Cl)cc1Cl)C(=O)O)c1ccccc1 (centres undefined)', 'active'),
  ('COc1ccc(CCNC(=O)c2nnn(-c3ccc4c(c3)OCCO4)c2N)cc1OC', 'inactive');
